Hi there, I'd appreciate the recorded EC50 for every entry that follows.
# subject of test: Luciferin 4-monooxygenase (Photinus pyralis, UniProt P08659)
# Sequence (P08659 whole entry): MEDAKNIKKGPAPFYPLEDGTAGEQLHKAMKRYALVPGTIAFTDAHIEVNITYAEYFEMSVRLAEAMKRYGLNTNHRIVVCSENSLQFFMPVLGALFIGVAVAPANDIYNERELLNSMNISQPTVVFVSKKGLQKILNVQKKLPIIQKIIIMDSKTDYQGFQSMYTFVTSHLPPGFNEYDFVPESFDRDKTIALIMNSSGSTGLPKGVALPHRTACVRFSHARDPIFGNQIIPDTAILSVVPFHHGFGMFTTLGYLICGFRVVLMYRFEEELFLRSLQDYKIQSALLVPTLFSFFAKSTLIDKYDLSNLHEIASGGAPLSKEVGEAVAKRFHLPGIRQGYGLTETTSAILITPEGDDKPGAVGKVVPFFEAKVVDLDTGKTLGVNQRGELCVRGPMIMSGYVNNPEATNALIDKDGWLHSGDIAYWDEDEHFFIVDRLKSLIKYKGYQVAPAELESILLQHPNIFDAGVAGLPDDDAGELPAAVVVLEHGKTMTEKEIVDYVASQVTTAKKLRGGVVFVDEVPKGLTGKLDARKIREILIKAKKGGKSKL
# assay explanation: inhibition of purified Photinus pyralis luciferase – biochemical, luminescence, dose response (AID 1891)
Active and inactive are the calls of the source. Cut-off read from the data, not from the text of the source: actives have a measured EC50 and inactives only a lower limit.

Worked set:
molecule="Cc1nc2sccn2c(=O)c1S(=O)(=O)NCC(C)c1ccccc1 (centres undefined)" subject_of_test="Luciferin 4-monooxygenase (Photinus pyralis, UniProt P08659)" assay_value="> 112 µM (not active)"
molecule=COc1ccc(NC(=O)c2cccc(OC(F)F)c2)cc1Cl subject_of_test="Luciferin 4-monooxygenase (Photinus pyralis, UniProt P08659)" assay_value="17.3 µM (active)"
molecule=Cc1cc(NS(=O)(=O)c2ccc(Nc3nc(-c4sc(N)nc4C)cs3)cc2)no1 subject_of_test="Luciferin 4-monooxygenase (Photinus pyralis, UniProt P08659)" assay_value="> 112 µM (not active)"
molecule="CCN(CC(=O)NC1CCS(=O)(=O)C1)S(=O)(=O)c1ccccc1 (centres undefined)" subject_of_test="Luciferin 4-monooxygenase (Photinus pyralis, UniProt P08659)" assay_value="> 112 µM (not active)"
molecule="CC(Oc1cccc(Cl)c1)C(=O)Nc1ccccc1N1CCCC1 (centres undefined)" subject_of_test="Luciferin 4-monooxygenase (Photinus pyralis, UniProt P08659)" assay_value="> 112 µM (not active)"
molecule=Cc1nnc(SCC(=O)Nc2ccc(Br)cn2)nc1O subject_of_test="Luciferin 4-monooxygenase (Photinus pyralis, UniProt P08659)" assay_value="> 112 µM (not active)"

I need EC50 for every entry listed below, if you could help.
1. O=c1c2sc3nc(N4CCOCC4)c4c(c3c2ncn1-c1ccccc1)CCCC4
2. CC(C)OCCCN1CN(S(=O)(=O)c2cccs2)c2nc3ccccc3nc21
3. Cc1ccccc1SCC(=O)OCC(=O)N(C)c1c(N)n(Cc2ccccc2)c(=O)[nH]c1=O
4. O=C(CSc1ccccc1)Nc1nc2ccccc2[nH]1

Solution:
1: > 112 µM (not active); 2: > 112 µM (not active); 3: > 112 µM (not active); 4: > 112 µM (not active)

----------
# subject of test: Protein RecA (Mycobacterium tuberculosis)
# Sequence (P9WHJ3 whole entry): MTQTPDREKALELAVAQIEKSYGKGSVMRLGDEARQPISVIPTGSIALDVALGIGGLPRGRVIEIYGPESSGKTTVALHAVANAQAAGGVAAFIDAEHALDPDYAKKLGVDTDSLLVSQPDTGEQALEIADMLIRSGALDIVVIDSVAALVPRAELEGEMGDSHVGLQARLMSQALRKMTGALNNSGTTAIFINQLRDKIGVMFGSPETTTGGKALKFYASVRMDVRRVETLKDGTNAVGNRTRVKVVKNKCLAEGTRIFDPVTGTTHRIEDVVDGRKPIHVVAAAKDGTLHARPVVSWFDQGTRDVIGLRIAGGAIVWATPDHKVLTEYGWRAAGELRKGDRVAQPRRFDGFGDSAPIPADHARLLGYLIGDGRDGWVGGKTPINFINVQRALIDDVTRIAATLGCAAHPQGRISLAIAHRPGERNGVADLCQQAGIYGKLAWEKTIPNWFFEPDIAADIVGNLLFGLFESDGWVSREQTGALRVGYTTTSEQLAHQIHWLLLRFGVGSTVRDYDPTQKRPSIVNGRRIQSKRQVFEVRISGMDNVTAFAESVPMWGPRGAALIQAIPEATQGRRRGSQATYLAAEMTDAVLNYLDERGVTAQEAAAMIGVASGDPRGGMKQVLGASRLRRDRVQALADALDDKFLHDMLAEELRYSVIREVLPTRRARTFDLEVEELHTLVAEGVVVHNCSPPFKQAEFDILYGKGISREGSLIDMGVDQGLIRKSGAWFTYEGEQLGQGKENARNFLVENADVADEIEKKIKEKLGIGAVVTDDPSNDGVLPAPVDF
# assay explanation: Fluorescence Cell-Free Homogeneous Dose Retest to Identify Inhibitors of RecA-Intein Splicing Activity. [Related pubchem assays (depositor defined):AID2097, AID2223, AID489010, AID492950]
# Type: functional
Active and inactive are the calls of the source. No stated cut-off is given here; in the data, actives have a measured EC50 and inactives only a lower limit.
Respond using exactly one of the listed classes: class 1 (active), class 0 (inactive)

See these solved cases before continuing.
molecule=Cc1c(Cl)cccc1N=C([S-])/C(=C(\O)c1ccc(Cl)s1)[n+]1ccccc1 group="class 1"
molecule="CC(CCn1cccn1)NC(=O)CCc1nnc(CCc2ccccc2)o1 (centres undefined)" group="class 0"
molecule=CC(C)(C)c1cc[n+](C2=C([N-]S(=O)(=O)c3cccs3)C(=O)c3ccccc3C2=O)cc1 group="class 1"
molecule="COCc1n[nH]c2c1C(c1ccc(OC)cc1)C(C#N)=C(N)O2 (centres undefined)" group="class 1"
molecule=O=C(CCl)/N=c1\sccn1Cc1ccc(Cl)cc1Cl group="class 1"

Exercise: Answer briefly: the call reported for CCc1ccc(S(=O)(=O)/N=C2\C=C(Nc3ccc(O)cc3)C(=O)c3ccccc32)cc1 in this assay.
Solution: class 1

Exercise: Answer briefly: the call reported for O=C(CCl)Nc1c2c(nn1-c1ccccc1)CSC2 in this assay.
Solution: class 1

Exercise: Answer briefly: the call reported for COc1ccc(-c2cc(=O)[nH][nH]2)cc1OC in this assay.
Solution: class 1

Exercise: Answer briefly: the call reported for C/C(=C\c1ccco1)C1C(C#N)=C(N)Oc2[nH]nc(-c3ccccc3)c21 (centres undefined) in this assay.
Solution: class 1
